# Tested on: Escherichia coli
# assayMethodText: Antibacterial activity against Escherichia coli ATCC 25922 isolate 107
# Assay type: functional

{"moleculeSmiles": "CN(C)[C@@H]1C(O)=C(C(N)=O)C(=O)[C@@]2(O)C(O)=C3C(=O)c4c(O)c(NC(=O)[C@@H]5CC(F)(F)CN5C)cc(F)c4C[C@H]3C[C@@H]12", "targetOrTestSystem": "Escherichia coli", "valueModifier": ">", "MIC / µg/mL": 32}
{"moleculeSmiles": "CN(C)[C@@H]1C(O)=C(C(N)=O)C(=O)[C@@]2(O)C(O)=C3C(=O)c4c(O)c(NC(=O)CNC(C)(C)C)cc(F)c4C[C@H]3C[C@@H]12", "targetOrTestSystem": "Escherichia coli", "valueModifier": "=", "MIC / µg/mL": 0.25}
{"moleculeSmiles": "CN(C)[C@@H]1C(O)=C(C(N)=O)C(=O)[C@@]2(O)C(O)=C3C(=O)c4c(O)c(NC(=O)[C@@H]5C[C@@H](F)CN5C)cc(F)c4C[C@H]3C[C@@H]12", "targetOrTestSystem": "Escherichia coli", "valueModifier": "=", "MIC / µg/mL": 4}
{"moleculeSmiles": "CN(C)[C@@H]1C(O)=C(C(N)=O)C(=O)[C@@]2(O)C(O)=C3C(=O)c4c(O)c(NS(=O)(=O)c5ccccc5)cc(F)c4C[C@H]3C[C@@H]12", "targetOrTestSystem": "Escherichia coli", "valueModifier": "=", "MIC / µg/mL": 32}
{"moleculeSmiles": "CN(C)[C@@H]1C(O)=C(C(N)=O)C(=O)[C@@]2(O)C(O)=C3C(=O)c4c(O)c(NC(=O)c5cccs5)cc(F)c4C[C@H]3C[C@@H]12", "targetOrTestSystem": "Escherichia coli", "valueModifier": ">", "MIC / µg/mL": 32}
{"moleculeSmiles": "CCN1CCC[C@H]1C(=O)Nc1cc(F)c2c(c1O)C(=O)C1=C(O)[C@]3(O)C(=O)C(C(N)=O)=C(O)[C@@H](N(C)C)[C@@H]3C[C@@H]1C2", "targetOrTestSystem": "Escherichia coli", "valueModifier": "=", "MIC / µg/mL": 0.13}
{"moleculeSmiles": "CN(C)[C@@H]1C(O)=C(C(N)=O)C(=O)[C@@]2(O)C(O)=C3C(=O)c4c(O)c(NC(=O)c5cccnc5)cc(F)c4C[C@H]3C[C@@H]12", "targetOrTestSystem": "Escherichia coli", "valueModifier": ">", "MIC / µg/mL": 32}

---

# Tested on: Haemophilus influenzae
# assayMethodText: Antibacterial activity against Haemophilus influenzae 551
# Format: functional
Below, each entry is listed alongside its reported MIC90.

{"compound": "CN(C)[C@@H]1C(O)=C(C(N)=O)C(=O)[C@@]2(O)C(O)=C3C(=O)c4c(O)c(NC(=O)[C@@H]5CCCN5C)cc(F)c4C[C@H]3C[C@@H]12 [TP-271]", "MIC90": "0.5 µg/mL"}
{"compound": "CN(C)[C@@H]1C(O)=C(C(N)=O)C(=O)[C@@]2(O)C(O)=C3C(=O)c4c(O)c(NC(=O)[C@@H]5CCN5C)cc(F)c4C[C@H]3C[C@@H]12", "MIC90": "0.25 µg/mL"}
{"compound": "CC(=O)NC[C@H]1CN(c2ccc(N3CCOCC3)c(F)c2)C(=O)O1 [LINEZOLID]", "MIC90": "16 µg/mL"}
{"compound": "C[C@H]1COc2c(N3CCN(C)CC3)c(F)cc3c(=O)c(C(=O)O)cn1c23.C[C@H]1COc2c(N3CCN(C)CC3)c(F)cc3c(=O)c(C(=O)O)cn1c23.O [LEVOFLOXACIN]", "MIC90": "0.031 µg/mL"}
